Tested on: Stellaria media
Assay: Post-emergence herbicidal action, STEME
Format: in vivo
Design: key: % herbicidal action vs untreated; 100 = plants died, 0 = like control
Settings: Dosage 80 g/ha
Method: [table] 2. […] After the test plants have been left to stand in the greenhouse under optimal growth conditions for about 3 weeks, the action of the preparations is assessed visually in comparison to untreated controls (herbicidal action in percent (%): 100% activity=the plants have died, 0% activity=like control plants). […]
Experimental readout: herbicidal action STEME

{"Molecule": "CCCn1nnnc1NC(=O)c1ccc(C(F)(F)F)c(CSC)c1OC", "Measurement": 100}
{"Molecule": "CCCn1nnnc1NC(=O)c1ccc(C(F)(F)F)c(CS(C)(=O)=O)c1Cl", "Measurement": 100}
{"Molecule": "Cc1ccc(C(=O)Nc2nnnn2C)c(Cl)c1C[S+](C)[O-] (racemic)", "Measurement": 100}
{"Molecule": "CCn1nnnc1NC(=O)c1ccc(C)c(CSC)c1Cl", "Measurement": 100}
{"Molecule": "CCCn1nnnc1NC(=O)c1ccc(C(F)F)c(CS(C)(=O)=O)c1Cl", "Measurement": 100}
{"Molecule": "CSCc1c(C(F)(F)F)ccc(C(=O)Nc2nnnn2C)c1SC", "Measurement": 100}
{"Molecule": "CCCn1nnnc1NC(=O)c1ccc(C(F)F)c(CSC)c1C", "Measurement": 80}
{"Molecule": "CCCn1nnnc1NC(=O)c1ccc(C(F)(F)F)c(C[S+]([O-])CC)c1Br (stereo not drawn)", "Measurement": 100}
{"Molecule": "CCn1nnnc1NC(=O)c1ccc(C(F)F)c(CSC)c1C", "Measurement": 100}

----------
System: Cyperus esculentus
Test: Pre-emergence herbicidal action, CYPES
Assay type: in vivo
Design: key: % activity: 100 = plants have died, 0 = like control plants
Conditions: comparative experiment, 20 g of a.i./ha
This section presents compounds with their documented Herbicidal action against CYPES values.

{"Compound": "CSCc1c(C(F)F)ccc(C(=O)Nc2nnnn2C)c1Cl [Example 1-320]", "Herbicidal action against CYPES": 80}
{"Compound": "CCSCc1c(C(F)(F)F)ccc(C(=O)Nc2nnnn2C)c1Cl [Example 1-299]", "Herbicidal action against CYPES": 90}
{"Compound": "CSc1c(C(F)(F)F)ccc(C(=O)Nc2nnnn2C)c1Br [Example V-8, reference compound]", "Herbicidal action against CYPES": 0}
{"Compound": "Cn1nnnc1NC(=O)c1ccc(C(F)(F)F)c(CS(C)(=O)=O)c1Cl [Example 1-298]", "Herbicidal action against CYPES": 100}
{"Compound": "CCSc1c(C(F)(F)F)ccc(C(=O)Nc2nnnn2C)c1Cl [Example V-4, reference compound]", "Herbicidal action against CYPES": 0}
{"Compound": "CSc1c(C(=O)Nc2nnnn2C)ccc(C(F)(F)F)c1C[S+](C)[O-] (centres unmarked) [Example 1-162]", "Herbicidal action against CYPES": 70}
{"Compound": "COc1c(C(=O)Nc2nnnn2C)ccc(C(F)(F)F)c1CSC [Example 1-134]", "Herbicidal action against CYPES": 50}
{"Compound": "Cn1nnnc1NC(=O)c1ccc(C(F)(F)F)c(C[S+](C)[O-])c1Cl (racemic) [Example 1-297]", "Herbicidal action against CYPES": 100}

----------
Tested on: Stellaria media
Assay: Pre-emergence herbicidal action, STEME
Format: in vivo
Conditions: dosage 320 g/ha, scored visually after 3 weeks vs untreated controls (100% = plants have died)

{"Compound": "CCn1nnnc1NC(=O)c1ccc(C(F)F)c(C[S+]([O-])CC)c1Cl (stereo not drawn)", "Measurement unit": "%", "herbicidal activity STEME": 100}
{"Compound": "C=CCSCc1c(C(F)(F)F)ccc(C(=O)Nc2nnnn2C)c1Cl", "Measurement unit": "%", "herbicidal activity STEME": 100}
{"Compound": "COCC[S+]([O-])Cc1c(C(F)(F)F)ccc(C(=O)Nc2nnnn2C)c1Cl (racemic)", "Measurement unit": "%", "herbicidal activity STEME": 100}
{"Compound": "CCCn1nnnc1NC(=O)c1ccc(C(F)(F)F)c(CSC)c1OC", "Measurement unit": "%", "herbicidal activity STEME": 100}
{"Compound": "CCCn1nnnc1NC(=O)c1ccc(C(F)F)c(C[S+]([O-])CC)c1Cl (stereo not drawn)", "Measurement unit": "%", "herbicidal activity STEME": 100}
{"Compound": "Cn1nnnc1NC(=O)c1ccc(C(F)(F)F)c(CS(C)(=O)=O)c1F", "Measurement unit": "%", "herbicidal activity STEME": 90}
{"Compound": "CSCc1c(C(F)F)ccc(C(=O)Nc2nnnn2C)c1C", "Measurement unit": "%", "herbicidal activity STEME": 90}
{"Compound": "CCCn1nnnc1NC(=O)c1ccc(C(F)F)c(C[S+](C)[O-])c1SC (stereo not drawn)", "Measurement unit": "%", "herbicidal activity STEME": 100}
{"Compound": "Cn1nnnc1NC(=O)c1ccc(C(F)(F)F)c(CS(C)(=O)=O)c1Br", "Measurement unit": "%", "herbicidal activity STEME": 90}
{"Compound": "Cn1nnnc1NC(=O)c1ccc(C(F)(F)F)c(C[S+](C)[O-])c1F (stereo not drawn)", "Measurement unit": "%", "herbicidal activity STEME": 90}
{"Compound": "CSCc1c(C(F)F)ccc(C(=O)Nc2nnnn2C)c1Cl", "Measurement unit": "%", "herbicidal activity STEME": 90}
{"Compound": "CCSCc1c(C(F)(F)F)ccc(C(=O)Nc2nnnn2CC)c1Br", "Measurement unit": "%", "herbicidal activity STEME": 100}
{"Compound": "CCS(=O)(=O)Cc1c(C(F)(F)F)ccc(C(=O)Nc2nnnn2C)c1Br", "Measurement unit": "%", "herbicidal activity STEME": 90}
{"Compound": "CCSCc1c(C(F)(F)F)ccc(C(=O)Nc2nnnn2C)c1Br", "Measurement unit": "%", "herbicidal activity STEME": 100}
{"Compound": "Cn1nnnc1NC(=O)c1ccc(C(F)(F)F)c(C[S+]([O-])C2CC2)c1Cl (racemic)", "Measurement unit": "%", "herbicidal activity STEME": 100}
{"Compound": "C=CCSCc1c(C(F)(F)F)ccc(C(=O)Nc2nnnn2CCC)c1Cl", "Measurement unit": "%", "herbicidal activity STEME": 100}
{"Compound": "CCSCc1c(C(F)F)ccc(C(=O)Nc2nnnn2C)c1SCC", "Measurement unit": "%", "herbicidal activity STEME": 100}
{"Compound": "CCn1nnnc1NC(=O)c1ccc(C(F)(F)F)c(CSC)c1Cl", "Measurement unit": "%", "herbicidal activity STEME": 100}

----------
Test system: Setaria viridis
Experiment: Pre-emergence herbicidal action, SETVI
Format: in vivo
Set-up: key: % activity: 100 = plants have died, 0 = like control plants
Details: comparative experiment, 20 g of a.i./ha
This section presents compounds with their documented Herbicidal action against SETVI values.

{"Compound": "CSc1c(I)ccc(C(=O)Nc2nnnn2C)c1Cl [Example V-5, reference compound]", "Herbicidal action against SETVI": 0}
{"Compound": "Cn1nnnc1NC(=O)c1ccc(I)c(S(C)(=O)=O)c1Cl [Example V-7, reference compound]", "Herbicidal action against SETVI": 0}
{"Compound": "CSCc1c(I)ccc(C(=O)Nc2nnnn2C)c1Cl [Example 1-362]", "Herbicidal action against SETVI": 90}
{"Compound": "CCSc1c(C(F)(F)F)ccc(C(=O)Nc2nnnn2C)c1Cl [Example V-4, reference compound]", "Herbicidal action against SETVI": 60}
{"Compound": "Cn1nnnc1NC(=O)c1ccc(I)c(CS(C)(=O)=O)c1Cl [Example 1-364]", "Herbicidal action against SETVI": 100}
{"Compound": "Cn1nnnc1NC(=O)c1ccc(C(F)(F)F)c(C[S+](C)[O-])c1Br (stereo not shown) [Example 1-381]", "Herbicidal action against SETVI": 80}
{"Compound": "Cn1nnnc1NC(=O)c1ccc(I)c(C[S+](C)[O-])c1Cl (racemic) [Example 1-363]", "Herbicidal action against SETVI": 90}
{"Compound": "Cn1nnnc1NC(=O)c1ccc(I)c([S+](C)[O-])c1Cl (stereo not shown) [Example V-6, reference compound]", "Herbicidal action against SETVI": 60}
{"Compound": "Cn1nnnc1NC(=O)c1ccc(C(F)(F)F)c([S+](C)[O-])c1Br (stereo not shown) [Example V-9, reference compound]", "Herbicidal action against SETVI": 40}
{"Compound": "CCSCc1c(C(F)(F)F)ccc(C(=O)Nc2nnnn2C)c1Cl [Example 1-299]", "Herbicidal action against SETVI": 90}

----------
Tested on: Avena fatua
Assay: Post-emergence herbicidal action, AVEFA
Format: in vivo
Set-up: key: % herbicidal action vs untreated; 100 = plants died, 0 = like control
Details: post-emergence, dosage 80 g/ha
This section presents compounds with their documented herbicidal action AVEFA values.
Experimental readout: herbicidal action AVEFA (%)

{"Compound": "C=CCSCc1c(C(F)(F)F)ccc(C(=O)Nc2nnnn2C)c1Cl [Example 1-308]", "Measurement": 100}
{"Compound": "Cn1nnnc1NC(=O)c1ccc(C(F)(F)F)c(CSCC2CC2)c1Cl [Example 1-314]", "Measurement": 100}
{"Compound": "CCSCc1c(C(F)F)ccc(C(=O)Nc2nnnn2CC)c1Cl [Example 2-323]", "Measurement": 100}
{"Compound": "Cn1nnnc1NC(=O)c1ccc(C(F)(F)F)c(C[S+]([O-])C2CC2)c1Cl (racemic) [Example 1-303]", "Measurement": 100}
{"Compound": "CCn1nnnc1NC(=O)c1ccc(C(F)F)c(CS(C)(=O)=O)c1Cl [Example 2-322]", "Measurement": 80}
{"Compound": "CCn1nnnc1NC(=O)c1ccc(C(F)(F)F)c(CS(=O)(=O)CC)c1Br [Example 2-385]", "Measurement": 90}
{"Compound": "CCn1nnnc1NC(=O)c1ccc(C(F)(F)F)c(C[S+]([O-])CC)c1Br (centres unmarked) [Example 2-384]", "Measurement": 90}
{"Compound": "CCCn1nnnc1NC(=O)c1ccc(C(F)(F)F)c(C[S+](C)[O-])c1SC (centres unmarked) [Example 3-162]", "Measurement": 90}
